SYSTEM UNDER TEST: T1, recombinant human glycophorin A ectodomain protein (human, UniProt P02724 20-91)
T1 construct: 72 amino acids of the extracellular region; also called Hu-rec GPA
T1 sequence: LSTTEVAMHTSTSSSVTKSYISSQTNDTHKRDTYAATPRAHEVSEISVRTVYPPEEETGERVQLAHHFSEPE
RUN DESCRIPTION: ELISA, Fab on coated recombinant human GPA ectodomain
Provide the recorded binding in ELISA relative to parental Fab for the entries that follow.

Record request: binding in ELISA relative to parental Fab value, item TPP-5907, humanized and germlined 6C12 Fab; VL: (S24R, A26S, S49A, P54Q, F95Y); VH: (I48M, S54G, D56G, D66G, L70M, T72R) (Fab, V domains shown) VH: EVQLVQSGAEVKKPGASVKVSCKASGYTFTTYTIHWVRQAPGQGLEWMGYINPGSGYTRYNPKFKGRVTMTRDKSTSTAYMELRSLRSDDTAVYYCQTGTRDYWGQGTTVTVSS VL: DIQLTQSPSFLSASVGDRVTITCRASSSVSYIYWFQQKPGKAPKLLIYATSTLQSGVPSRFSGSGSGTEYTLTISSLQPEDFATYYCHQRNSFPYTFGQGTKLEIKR
6.9 relative to parental Fab

Also TPP-5697, Hu6C12-24 Fab variant VH: (D66G, L70M, T72R) (Fab, V domains shown, Built on the parental Fab TPP-4935) VH: EVQLVQSGAEVKKPGASVKVSCKASGYTFTTYTIHWVRQAPGQGLEWIGYINPSSDYTRYNPKFKGRVTMTRDKSTSTAYMELRSLRSDDTAVYYCQTGTRDYWGQGTTVTVSS VL: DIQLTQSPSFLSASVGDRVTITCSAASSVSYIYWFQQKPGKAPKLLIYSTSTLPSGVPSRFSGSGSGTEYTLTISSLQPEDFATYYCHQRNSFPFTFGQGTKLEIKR ?
1.3 relative to parental Fab

Also TPP-5839, Hu6C12-24 Fab variant VL: (S24R, A26S, S49A, P54Q, F95Y); VH: (I48M, D66G, L70M, T72R) (Fab, V domains shown, Built on the parental Fab TPP-4935) VH: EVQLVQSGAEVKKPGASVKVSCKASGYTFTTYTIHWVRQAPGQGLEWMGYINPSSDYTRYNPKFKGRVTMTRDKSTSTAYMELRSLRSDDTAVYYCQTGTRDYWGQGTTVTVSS VL: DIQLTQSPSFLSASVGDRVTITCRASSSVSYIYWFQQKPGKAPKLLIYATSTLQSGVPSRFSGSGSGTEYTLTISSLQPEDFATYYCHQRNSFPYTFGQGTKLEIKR ?
4.7 relative to parental Fab
